assay-explanation: Cytotoxicity against mouse RAW264.7 cells assessed as cell viability at 40 uM measured after 24 hrs by MTT assay relative to control
Type: cell-based

{"smi": "CCn1cc(COc2cc(O)c3c(c2)O[C@H](c2ccc(OC)c(O)c2)CC3=O)nn1", "viability at 24 h, 40 µM [%]": 106}
{"smi": "COc1ccc([C@@H]2CC(=O)c3c(O)cc(OCc4cn(Cc5ccccc5C#N)nn4)cc3O2)cc1O", "viability at 24 h, 40 µM [%]": 114}
{"smi": "COc1ccc([C@@H]2CC(=O)c3c(O)cc(OCc4cn(C5CCC5)nn4)cc3O2)cc1O", "viability at 24 h, 40 µM [%]": 111}
{"smi": "COc1ccc([C@@H]2CC(=O)c3c(O)cc(OCc4cn(Cc5ccccc5C)nn4)cc3O2)cc1O", "viability at 24 h, 40 µM [%]": 100}
{"smi": "CCCCn1cc(COc2cc(O)c3c(c2)O[C@H](c2ccc(OC)c(O)c2)CC3=O)nn1", "viability at 24 h, 40 µM [%]": 118}
{"smi": "COc1ccc([C@@H]2CC(=O)c3c(O)cc(OCc4cn(CC(=O)c5ccccc5OC)nn4)cc3O2)cc1O", "viability at 24 h, 40 µM [%]": 132}
{"smi": "CCn1cc(COc2cc(O)c3c(c2)O[C@H](c2ccc(OC)c(O)c2)C/C3=N\\O)nn1", "viability at 24 h, 40 µM [%]": 101}
{"smi": "COc1ccc([C@@H]2CC(=O)c3c(O)cc(OCc4cn(Cc5cccc(C)c5)nn4)cc3O2)cc1O", "viability at 24 h, 40 µM [%]": 113}
{"smi": "COc1ccc([C@@H]2CC(=O)c3c(O)cc(OCc4cn(C5CCCCC5)nn4)cc3O2)cc1O", "viability at 24 h, 40 µM [%]": 124}
{"smi": "COc1ccc([C@@H]2C/C(=N\\O)c3c(O)cc(OCc4cn(Cc5ccccc5C)nn4)cc3O2)cc1O", "viability at 24 h, 40 µM [%]": 83}
{"smi": "C=CCn1cc(COc2cc(O)c3c(c2)O[C@H](c2ccc(OC)c(O)c2)CC3=O)nn1", "viability at 24 h, 40 µM [%]": 118}
{"smi": "COc1ccc([C@@H]2CC(=O)c3c(O)cc(OCc4cn(Cc5ccccc5Cl)nn4)cc3O2)cc1O", "viability at 24 h, 40 µM [%]": 83}
{"smi": "COc1ccc([C@@H]2CC(=O)c3c(O)cc(OCc4cn(Cc5ccccc5F)nn4)cc3O2)cc1O", "viability at 24 h, 40 µM [%]": 74}
{"smi": "CCCn1cc(COc2cc(O)c3c(c2)O[C@H](c2ccc(OC)c(O)c2)CC3=O)nn1", "viability at 24 h, 40 µM [%]": 114}
{"smi": "COc1ccc([C@@H]2CC(=O)c3c(O)cc(OCc4cn(CCCO)nn4)cc3O2)cc1O", "viability at 24 h, 40 µM [%]": 121}
{"smi": "COc1ccc([C@@H]2CC(=O)c3c(O)cc(OCc4cn(CCO)nn4)cc3O2)cc1O", "viability at 24 h, 40 µM [%]": 112}
{"smi": "Cc1ccc(-c2cc(C(F)(F)F)nn2-c2ccc(S(N)(=O)=O)cc2)cc1", "viability at 24 h, 40 µM [%]": 83}
{"smi": "COc1ccc([C@@H]2C/C(=N\\O)c3c(O)cc(OCc4cn(CC5CC5)nn4)cc3O2)cc1O", "viability at 24 h, 40 µM [%]": 86}
{"smi": "COc1ccc([C@@H]2CC(=O)c3c(O)cc(O)cc3O2)cc1O", "viability at 24 h, 40 µM [%]": 121}
{"smi": "COc1ccc([C@@H]2CC(=O)c3c(O)cc(OCc4cn(Cc5cccc(C#N)c5)nn4)cc3O2)cc1O", "viability at 24 h, 40 µM [%]": 56}
{"smi": "COc1ccc([C@@H]2CC(=O)c3c(O)cc(OCc4cn(CC(=O)c5ccccc5F)nn4)cc3O2)cc1O", "viability at 24 h, 40 µM [%]": 113}
{"smi": "COc1ccc([C@@H]2CC(=O)c3c(O)cc(OCc4cn(Cc5ccccc5)nn4)cc3O2)cc1O", "viability at 24 h, 40 µM [%]": 98}
{"smi": "COc1ccc([C@@H]2CC(=O)c3c(O)cc(OCc4cn(Cc5ccccc5C(F)(F)F)nn4)cc3O2)cc1O", "viability at 24 h, 40 µM [%]": 135}
{"smi": "COc1ccc([C@@H]2CC(=O)c3c(O)cc(OCc4cn(Cc5ccc(C(F)(F)F)cc5)nn4)cc3O2)cc1O", "viability at 24 h, 40 µM [%]": 66}
{"smi": "COc1ccc([C@@H]2CC(=O)c3c(O)cc(OCc4cn(CC(=O)c5ccccc5)nn4)cc3O2)cc1O", "viability at 24 h, 40 µM [%]": 112}
{"smi": "COc1ccc([C@@H]2C/C(=N\\O)c3c(O)cc(OCc4cn(Cc5ccccc5F)nn4)cc3O2)cc1O", "viability at 24 h, 40 µM [%]": 82}
{"smi": "COc1ccc([C@@H]2CC(=O)c3c(O)cc(OCc4cn(C5CCCC5)nn4)cc3O2)cc1O", "viability at 24 h, 40 µM [%]": 110}
{"smi": "COc1ccc([C@@H]2CC(=O)c3c(O)cc(OCc4cn(Cc5cccc(C(F)(F)F)c5)nn4)cc3O2)cc1O", "viability at 24 h, 40 µM [%]": 93}
{"smi": "CCCn1cc(COc2cc(O)c3c(c2)O[C@H](c2ccc(OC)c(O)c2)C/C3=N\\O)nn1", "viability at 24 h, 40 µM [%]": 114}
{"smi": "COc1ccc([C@@H]2CC(=O)c3c(O)cc(OCc4cn(Cc5ccc(C)cc5)nn4)cc3O2)cc1O", "viability at 24 h, 40 µM [%]": 110}
{"smi": "COc1ccc([C@@H]2CC(=O)c3c(O)cc(OCc4cn(CC(=O)c5ccccc5Cl)nn4)cc3O2)cc1O", "viability at 24 h, 40 µM [%]": 99}
{"smi": "COc1ccc([C@@H]2CC(=O)c3c(O)cc(OCc4cn(CC(=O)c5ccc(F)cc5)nn4)cc3O2)cc1O", "viability at 24 h, 40 µM [%]": 64}
{"smi": "COc1ccc([C@@H]2CC(=O)c3c(O)cc(OCc4cn(CC5CC5)nn4)cc3O2)cc1O", "viability at 24 h, 40 µM [%]": 87}
{"smi": "COc1ccc([C@@H]2CC(=O)c3c(O)cc(OCc4cn(Cc5ccc(F)cc5)nn4)cc3O2)cc1O", "viability at 24 h, 40 µM [%]": 101}
{"smi": "COc1ccc([C@@H]2C/C(=N\\O)c3c(O)cc(OCc4cn(Cc5ccccc5)nn4)cc3O2)cc1O", "viability at 24 h, 40 µM [%]": 93}
